# tested-system: T1, αv integrins (as found on HT1080 cells) (UniProt P06756 31-1048)
# T1 construct: whole, on cells; also called αv integrin ligand
# T1 sequence (P06756 31-1048): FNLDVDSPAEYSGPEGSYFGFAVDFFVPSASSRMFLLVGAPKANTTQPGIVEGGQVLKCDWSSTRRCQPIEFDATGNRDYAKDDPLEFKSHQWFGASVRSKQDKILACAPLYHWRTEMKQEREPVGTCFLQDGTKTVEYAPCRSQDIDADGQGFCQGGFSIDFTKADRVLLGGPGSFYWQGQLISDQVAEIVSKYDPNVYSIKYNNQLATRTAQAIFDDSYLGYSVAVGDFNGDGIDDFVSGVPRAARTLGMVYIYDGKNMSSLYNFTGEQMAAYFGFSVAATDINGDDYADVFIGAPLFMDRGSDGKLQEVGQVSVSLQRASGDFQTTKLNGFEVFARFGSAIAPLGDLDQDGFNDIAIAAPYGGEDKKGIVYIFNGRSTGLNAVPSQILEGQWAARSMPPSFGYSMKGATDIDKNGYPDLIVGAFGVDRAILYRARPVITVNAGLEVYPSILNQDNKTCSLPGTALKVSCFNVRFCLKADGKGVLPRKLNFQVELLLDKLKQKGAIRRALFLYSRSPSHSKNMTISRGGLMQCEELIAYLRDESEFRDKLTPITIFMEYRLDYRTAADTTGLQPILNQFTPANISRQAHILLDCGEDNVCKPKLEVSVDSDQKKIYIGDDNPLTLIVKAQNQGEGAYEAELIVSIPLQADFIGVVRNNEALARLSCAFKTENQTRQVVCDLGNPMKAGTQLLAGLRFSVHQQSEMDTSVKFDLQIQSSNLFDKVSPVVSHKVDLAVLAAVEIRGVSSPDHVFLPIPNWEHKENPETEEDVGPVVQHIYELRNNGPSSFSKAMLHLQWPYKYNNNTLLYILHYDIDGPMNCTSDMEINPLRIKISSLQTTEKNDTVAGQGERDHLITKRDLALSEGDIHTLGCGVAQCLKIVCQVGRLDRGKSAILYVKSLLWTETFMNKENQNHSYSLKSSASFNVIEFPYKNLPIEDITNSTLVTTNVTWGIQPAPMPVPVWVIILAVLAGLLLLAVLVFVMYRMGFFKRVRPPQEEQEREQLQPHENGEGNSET
# assay-procedure: HT1080 cell adhesion to coated human ICAM-4Fc (5 ug/ml), peptide 750 uM; competitor human ICAM-4Fc
Ends that are not written are not given here.
// reported input cells bound as % of binding to ICAM-4Fc in the absence of peptides for each item listed
Just the number in %, nothing appended.

Observe how each entry below is paired with its result.
TRWATSRIT (not fully specified (residues 1, 3, 8, 9), Nine residues of the G strand of domain 1 of mature human ICAM-4, starting at T91; also called G strand peptide) [tRwATSRit peptide (SEQ ID NO: 10)] = 42
SVPFWVRMS (Nine residues of the A strand of domain 1 of mature human ICAM-4, starting at S15; also called A strand peptide) [svpFWVrms peptide (SEQ ID NO: 9)] = 41
RQGKTLRGP (Control peptide; nine residues of the D strand of domain 1 of mature human ICAM-4, starting at R56; also called D strand peptide) [rqgktlrgp peptide (SEQ ID NO: 13)] = 96

--- query ---
INPUT: Give its input cells bound as % of binding to ICAM-4Fc in the absence of peptides value. Item: AWSSLAHCL (Nine residues of the F strand of domain 1 of mature human ICAM-4, starting at A76; also called F strand peptide) [aWssLahcl peptide (SEQ ID NO: 11)]
OUTPUT: 71
